Recorded Papp A→B for the following compounds
System: MDR1 (P-gp)
Test: Apparent permeability from apical to basolateral side in dog MDCK-MDR1 cells
Type: ADME, cell-based, Canis lupus familiaris
Write the answer as a number in ×10⁻⁶ cm/s, unit excluded.

- smilesStr: "C=CC(=O)NCCCC[C@H](NC(=O)Cc1ccccc1C)C(=O)N1CCN(C(=O)c2cccc3ccccc23)CC1"
  tgt: "MDR1 (P-gp)"
  measuredProperty: "Papp A→B"
  recordedValue: 0.32

From here, focus on the item given below.
Name the reported Papp A→B value associated with the compound C=CC(=O)NCCCC[C@H](NC(=O)Cc1ccccc1F)C(=O)N1CCN(C(=O)c2cccc3ccccc23)CC1
0.29
